Please go through the items and note down their recovered viral activity.
tested on: Recombinant adenovirus expressing enhanced GFP; assay: Recovered adenoviral activity after 7 days at 4° C. or 37° C. with glycinergics or SMM (Example 4); assay type: cell-based; conditions: one week at 37° C., 0.07 M, with sugars (1M Sucrose, 100 mM Raffinose)
The reply should contain only the number, in %.

IN: Item C[N+](C)(C)CC(=O)O has what recorded recovered viral activity?
OUT: 45

IN: Item NCC(=O)O [glycine, Glycine, reference compound] has what recorded recovered viral activity?
OUT: 41

IN: Item CN(C)CC(=O)O has what recorded recovered viral activity?
OUT: 37

IN: Item CNCC(=O)O has what recorded recovered viral activity?
OUT: 37

###

Please go through the items and note down their recovered viral activity.
system: Recombinant adenovirus expressing enhanced GFP; assay: Recovered adenoviral activity after 7 days at 4° C. or 37° C. with glycinergics or SMM (Example 4); type: cell-based; settings: one week at 37° C., 0.07 M, sole excipient (no sugars)
The reply should contain only the number, in %.

IN: Item NCC(=O)O [glycine, Glycine, reference compound] has what recorded recovered viral activity?
OUT: 29

IN: Item CNCC(=O)O [sarcosine, N-Methyl-glycine] has what recorded recovered viral activity?
OUT: 29

IN: Item C[S+](C)CC[C@H](N)C(=O)O [SMM, S-methyl-L-methionine] has what recorded recovered viral activity?
OUT: 33

IN: Item C[N+](C)(C)CC(=O)O [TMG, N,N,N-trimethylglycine] has what recorded recovered viral activity?
OUT: 21

IN: Item CN(C)CC(=O)O [DMG, N,N-Dimethylglycine] has what recorded recovered viral activity?
OUT: 27

###

system: Recombinant adenovirus expressing enhanced GFP; assay: Recovered adenoviral activity after 7 days at 4° C. or 37° C. with glycinergics or SMM (Example 4); assay type: cell-based; settings: one week at 37° C., 0.70 M, with sugars (1M Sucrose, 100 mM Raffinose)
Please go through the items and note down their recovered viral activity.
The reply should contain only the number, in %.

IN: Item CN(C)CC(=O)O has what recorded recovered viral activity?
OUT: 52

IN: Item CNCC(=O)O has what recorded recovered viral activity?
OUT: 56

IN: Item C[N+](C)(C)CC(=O)O has what recorded recovered viral activity?
OUT: 38.7

IN: Item NCC(=O)O [glycine, Glycine, reference compound] has what recorded recovered viral activity?
OUT: 54

Numbers sourced from patent US10716859B2.
